system: UACC-62 melanoma; assay: NCI tumour cell line growth inhibition, 48 h
// TGI lookup, one value per entry

Look over these answered cases.
CCc1cccc(C)c1N1C(=O)C(=O)C(c2nc3ccccc3o2)C(=O)C1=O; > 100 µM
O=C(/C=C/c1ccc(C(F)(F)F)cc1)Nc1ccc(C=C2c3ccccc3C(=O)c3ccccc32)cc1; 63.7 µM
Cc1cccc2c1c1ccc3c(c1n2C)C(=O)C=CC3=O; 26.5 µM

In plain terms, COc1ccc(Nc2nc3ccccc3c3occc23)cc1 has a documented TGI of 11.4 µM

In plain terms, O=c1c2ccccc2nc(-c2ccccc2)n1NC(=S)Nc1ccc(Cl)cc1 has a documented TGI of > 100 µM
